# Tested on: MS2 coat protein
# Test details: apparent KD of MS2 coat protein; designed switch direction (-1 OFF switch, 1 ON switch): 1; higher = weaker reporter binding
# Applied conditions: input ligand: FMN 200 uM
# cutoff 70 nM applies to apparent KD of MS2 coat protein; >= gives Satisfied, < gives Not satisfied

Past entries and their recorded results:
[
  {
    "Sequence text": "GCGAGCGUACUUGCUACAUGAGGAUCACCCAUGUUCGUUGGACAGGAUAUGGUACCGUUUCGGUACCAGAAGGGUUCAUCAUGU [JL SSNG3 3.75] (Eterna round: R96, puzzle: Same State NG 3)",
    "Qualitative label": "Satisfied"
  },
  {
    "Sequence text": "AUUGCUGUCACAGGAUAUCAUGCGGAAAUCGCGUGAGAAGGGUGGACUCUGUCAUUCACGGAGGACAUGAGGAUCACCCAUGUG [SS NG10LRO19] (Eterna round: R96, puzzle: Same State NG 1)",
    "Qualitative label": "Not satisfied"
  }
]

Inquiry: Reported apparent KD of MS2 coat protein reaches at least 70 nM for UUGCUCGUGUGAGGAUAUGCCGCCGUUUCGGCUGCAGAAGGUACUCUUUUACAUGAGGAUCACCCAUGUCUCUGUUGUUUCGUG [salish99_SSNG1_r04_937] (Eterna round: R96, puzzle: Same State NG 1) ?
Reply text: Satisfied

Inquiry: Reported apparent KD of MS2 coat protein reaches at least 70 nM for CUAUUAGGAUGAGGAUAUGCAGAGGAUCACCCUGUAGAAGGCAAUAGAUGAGGAUAUGCAGAGGAUCACCCUGUAGAAGGCAAC [pwkr ssNG DX.3] (Eterna round: R96, puzzle: Same State NG 1) ?
Reply text: Satisfied

Inquiry: Reported apparent KD of MS2 coat protein reaches at least 70 nM for UUGCUCGUGUGAGGAUAUGCAGCCGUUUCGGCUGCAGAAGGUACUAUAAUACAUGAGGAUCACCCAUGUCUCUGUUGUUUCGUG [salish99_SSNG1_r04_931] (Eterna round: R96, puzzle: Same State NG 1) ?
Reply text: Not satisfied

---

# System: MS2 coat protein
# Test details: apparent KD of MS2 coat protein; designed switch direction (-1 OFF switch, 1 ON switch): -1; higher = weaker reporter binding
# Applied conditions: Eterna round: R95; input ligand: microRNA oligo, concentration not stated
Would you kindly list apparent KD of MS2 coat protein for each of these sequences?
Answers are plain numbers, in nM.

[
  {
    "Sequence text": "GACUGCCGAGGAUAUACAUGAGGAUCACCCAUGUGCUUCAGCAUUUAAUAAUGCAUGGGUAGAAGGCGGUAGUC [LRO-Excl3-12] (puzzle: Exclusion 3)",
    "Tested system": "MS2 coat protein",
    "apparent KD of MS2 coat protein [nM]": 40.5
  },
  {
    "Sequence text": "GGGCGUGAAGGAUAUACAUGAGGAUCACCCAUGUGGGAGGAGAGUGGUGAGGAGGCUGGUAGAAGGUCAGGAUG [JR_Exclusion3_Sub007] (puzzle: Exclusion 3)",
    "Tested system": "MS2 coat protein",
    "apparent KD of MS2 coat protein [nM]": 42.6
  },
  {
    "Sequence text": "GCAGGCGACUAGGCUCGUCUUAUUUUGAGAAGAUUGAAAACAUGAGGAUCACCCAUGUGUGUGGGAGAGUUGGAGUG [JR_SV3TOV2_Sub012] (puzzle: Sensor v3, turn-off variant 2)",
    "Tested system": "MS2 coat protein",
    "apparent KD of MS2 coat protein [nM]": 346
  },
  {
    "Sequence text": "AAUAAACAAGCGAGAUCCUACAUGAGGAUCACCCAUGUGCUCGUCUUAUAAAGUACUAUCACGAAAGUGAUAGUACA [Mat - Sensor v3 - turn-off var 1 - Eli Mod - D65] (puzzle: Sensor v3, turn-off variant 1)",
    "Tested system": "MS2 coat protein",
    "apparent KD of MS2 coat protein [nM]": 41.5
  }
]

Inquiry: Please indicate apparent KD of MS2 coat protein recorded for GAGUGACAUGAGGAUCACCCAUGUGAGGAUAUCGGACGGACCUAGUUAACAUCCGCCGCGAGAAGGCACAUCGG [Exclusion 1 V23] (puzzle: Exclusion 1)
Reply text: 136

---

# Tested on: MS2 coat protein
# Test details: apparent KD of MS2 coat protein; designed switch direction (-1 OFF switch, 1 ON switch): 1; higher = weaker reporter binding
# Applied conditions: input ligand: FMN 200 uM
# cutoff 70 nM applies to apparent KD of MS2 coat protein; >= gives yes (1), < gives no (0)

Past entries and their recorded results:
[
  {
    "Sequence text": "ACAUGAGAGUGAGGAUAUAUAGUACCUACAUGUGACAUGAGGAUCACCCAUGUGGUAAGUAUGACAUAGAAGGCACAGAUAUGU [Equivalance 100 - Jieux - Same State NG 2] (Eterna round: R96, puzzle: Same State NG 2)",
    "Qualitative label": "no (0)"
  },
  {
    "Sequence text": "AAAAUACAUGAGGAUCACCCAUGUGAAAAUAUGGGAGGAUAUACCGAAAAAAAAAAAAAGGUAGAAGGCCCAAAAA [SS! 1 MT 5] (Eterna round: R96, puzzle: Same State 1)",
    "Qualitative label": "no (0)"
  },
  {
    "Sequence text": "GUGGUGGGUUGAGGAUAUUGGUUGUUGUUGUUCUACAUGAGGAUCACCCAUGUGGGUUGUGGUUUUGAGAAGGUUGGUUGCUGG [salish99_SSNG2_r04_049] (Eterna round: R96, puzzle: Same State NG 2)",
    "Qualitative label": "no (0)"
  }
]

Inquiry: Reported apparent KD of MS2 coat protein reaches at least 70 nM for AGAUCAUGACGAGGAUAUGGUACAUGAGGAUCACCCAUGUAUGUACCACGACGCGUACGUCGAAUCCAGAAGGCGUCGUGGUCA [JL SSNG2 1.07] (Eterna round: R96, puzzle: Same State NG 2) ?
Reply text: no (0)

Inquiry: Reported apparent KD of MS2 coat protein reaches at least 70 nM for GCUCGACGUAUGGCCUACAUGAGGAUCACCCAUGUGACUGGGCAGGAUAUCUAAAUGCAGAAUGUAGAGAAGGGCCCGUCGAGC [SameState NG3 #49] (Eterna round: R96, puzzle: Same State NG 3) ?
Reply text: yes (1)

Inquiry: Reported apparent KD of MS2 coat protein reaches at least 70 nM for UUAAUGAUGUAAGGAUAUACAUGAGGAUUUCUCGUAGAAGGUACAGGACAUGAGGAUCACCCAUGUAUCGCUCCGUAGAGCGUA [JL SSNG1 1.11] (Eterna round: R96, puzzle: Same State NG 1) ?
Reply text: yes (1)

Inquiry: Reported apparent KD of MS2 coat protein reaches at least 70 nM for UGAAUAGUCACAGGAUAUCAUGCGAAAAUUGCGUGAGAAGGGUGGAUGUUGUGCUCAAAGUGCUACAUGAGGAUCACCCAUGUU [SameState NG1 #42] (Eterna round: R96, puzzle: Same State NG 1) ?
Reply text: yes (1)

Inquiry: Reported apparent KD of MS2 coat protein reaches at least 70 nM for CCGUAGAUGGAAGGAUAUGGAGCCUUAUUGGCUCCAGAAGGUUCAAUACAUGAGGAUCACCCAUGUUCGGCGGUCAAUAGACCG [Eli NG1ss - 81] (Eterna round: R96, puzzle: Same State NG 1) ?
Reply text: no (0)

Inquiry: Reported apparent KD of MS2 coat protein reaches at least 70 nM for UUGAAGAAUUAAGGAUAUUGAUUACAUAUGUUUAACAUGAGGAUCACCCAUGUGGGUUGCGGUAUCGAGAAGGUAAAAUAAUAG [Mat - same State NG 2 - JL mod - D82] (Eterna round: R96, puzzle: Same State NG 2) ?
Reply text: yes (1)

Inquiry: Reported apparent KD of MS2 coat protein reaches at least 70 nM for ACAUGAGGAUCACCCAUGUAACCAAGAGAGAGAGCACGGACGCAGGAUAUGCGGCGACGAGCGGAGCAGAAGGGCGCCUCAUAU [Alacarus NG 3 Attempt 1] (Eterna round: R96, puzzle: Same State NG 3) ?
Reply text: yes (1)

Inquiry: Reported apparent KD of MS2 coat protein reaches at least 70 nM for AUUCGUUAGAUAGGAUAUCACCAUACAUGAGGAUCACCCAUGUUUACCACGCUGGUUUUUCAUACUGAGAAGGAUCUUGAUGAC [JR_SSNG2_Sub006] (Eterna round: R96, puzzle: Same State NG 2) ?
Reply text: no (0)

---

# Test system: MS2 coat protein
# Test details: apparent KD of MS2 coat protein, switch OFF state (with FMN for OFF switches, without FMN for ON switches); designed switch direction (-1 OFF switch, 1 ON switch): -1; higher = weaker reporter binding
# Applied conditions: FMN input: 0 or 200 uM; Eterna round: R93 (includes R88 designs)
Measured endpoint: apparent KD of MS2 coat protein (µM)
Numbers only, in µM.

See these solved cases before continuing.
[
  {
    "Sequence text": "UAAAAGUGAGGAUAUUCGGAUAGGAAAACGAAAACCUAUCCGAAGAAGGCACAUGAGGAUCACCCAUGUGGAAU [Mat - Exaclusion 4 - Eli mod - D48]",
    "Result unit": "µM",
    "apparent KD of MS2 coat protein": 0.036
  },
  {
    "Sequence text": "AAGAAGUGAGGAUAUGUCUGUGCGAAAAAAAAAAAGUGCAGACAGAAGGCACAUGAGGAUCACCCAUGUCAAAA [Florian Witold Znaniecki]",
    "Result unit": "µM",
    "apparent KD of MS2 coat protein": 0.039
  }
]

Inquiry: Output reported apparent KD of MS2 coat protein of the sequence AAGAAACAUGAGGAUCACCCAUGUGAGGAUAUUGAAAAGAAAAGAAAAGAAAGAAGAACAAGAAGGCACAAAGG [Merenhor] on MS2 coat protein.
Reply text: 0.0378
